assayedTarget: α1-adrenergic receptors
experiment: 3H-Prazosin binding assay on rat forebrain membranes
conditionContext: 0.5 nM 3H-Prazosin
readoutType: pIC50
Value format note: pIC50 is -log10 of concentration (mol/L); just state the number.

Q: What pIC50 value was documented for this compound, NC(=O)CN(CCc1ccccc1)C(=O)CN(C(=O)CNCCc1ccc(O)cc1)c1ccc(-c2ccccc2)cc1 ?
Ans: 7.72

These data points were gathered from patent US5447916A.
